Test: MTT cytotoxicity assay in uninfected U-937 macrophages
Details: human
Parameter: CC50 at 48 h. Scope: all listed entries.

Inquiry: Could you please provide reported CC50 at 48 h for C[C@@H]1[C@H](O)[C@@H](C)/C=C/C=C/C=C/C=C/C=C/C=C/C=C/[C@H](O[C@@H]2O[C@H](C)[C@@H](O)[C@H](N)[C@@H]2O)C[C@@H]2O[C@](O)(C[C@@H](O)C[C@@H](O)[C@H](O)CC[C@@H](O)C[C@@H](O)CC(=O)O[C@H]1C)C[C@H](O)[C@H]2C(=O)O [AMB, Amphotericin B, reference compound] ? Thanks!
Reply text: 56.1 µM

Inquiry: Provide one value: measured CC50 at 48 h of O=c1c(O)c(-c2ccc(O)c(O)c2)oc2cc(O)cc(O)c12 [Quercetin, quercetin]
Reply text: > 662 µM

Inquiry: State its CC50 at 48 h for this molecule: COc1cc(/C=C/C(=O)CC(=O)/C=C/c2ccc(O)c(OC)c2)ccc1O [Curcumin, curcumin]
Reply text: > 543 µM

Inquiry: Fill in CC50 at 48 h for record COc1cccc2c1C(=O)c1c(O)c3c(c(O)c1C2=O)C[C@@](O)(C(=O)CO)C[C@@H]3O[C@H]1C[C@H](N)[C@H](O)[C@H](C)O1 [DOXO, Doxorubicin, reference compound]
Reply text: 1.47 µM

Inquiry: Specify measured CC50 at 48 h for O=C(/C=C/C=C/c1ccc2c(c1)OCO2)N1CCCCC1 [Piperine, piperine] .
Reply text: > 701 µM

====

SI (Selectivity Index = LC50/EC50) values by entry
System: intracellular amastigotes of L. braziliensis
Experiment: In vitro leishmanicidal activity against intracellular amastigotes in infected U-937 macrophages (flow cytometry)
Assay type: cell-based, Leishmania braziliensis
Conditions: LC50 U-937 / EC50 L. braziliensis amastigotes

// solved cases for SI (Selectivity Index = LC50/EC50) follow
Inquiry: Output SI (Selectivity Index = LC50/EC50) of COc1cc(/C=C/C(=O)CC(=O)/C=C/c2ccc(O)c(OC)c2)ccc1O [Curcumin, curcumin]
Reply text: > 17.4

Inquiry: Report measured SI (Selectivity Index = LC50/EC50); entry is C[C@@H]1[C@H](O)[C@@H](C)/C=C/C=C/C=C/C=C/C=C/C=C/C=C/[C@H](O[C@@H]2O[C@H](C)[C@@H](O)[C@H](N)[C@@H]2O)C[C@@H]2O[C@](O)(C[C@@H](O)C[C@@H](O)[C@H](O)CC[C@@H](O)C[C@@H](O)CC(=O)O[C@H]1C)C[C@H](O)[C@H]2C(=O)O [AMB, Amphotericin B, reference compound]
Reply text: 172.7

Inquiry: Given the molecule O=c1c(O)c(-c2ccc(O)c(O)c2)oc2cc(O)cc(O)c12 [Quercetin, quercetin] , write its reported SI (Selectivity Index = LC50/EC50).
Reply text: > 20.6

# input for lookup
Inquiry: Tell me measured SI (Selectivity Index = LC50/EC50) for O=C(/C=C/C=C/c1ccc2c(c1)OCO2)N1CCCCC1 [Piperine, piperine] please.
Reply text: > 80

====

System: intracellular amastigotes of L. braziliensis
Experiment: In vitro leishmanicidal activity against intracellular amastigotes in infected U-937 macrophages (flow cytometry)
Assay type: cell-based, Leishmania braziliensis
Conditions: Leishmania braziliensis, U-937; read-out: effective concentration (in vitro leishmanicidal activity)
Measured Parameter: EC50 (µM)
Enter your answer as a number in µM; do not include the unit.

Inquiry: Fill in reported EC50 for this entry: `O=C(/C=C/C=C/c1ccc2c(c1)OCO2)N1CCCCC1`
Reply text: 8
